Test system: 361931-004-R-J1-PDC multicell spheroid viability;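 further: spheroids exposed to agents for seven days before readout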
Test: Anticancer human tumor 361931-004-R-J1-PDC patient-derived colon adenocarcinoma cell line growth inhibition [PI3K]
Conditions: curve of first compound; second compound 0.0316 µM
pIC50: −log10 of the molar value.
recorded-endpoint: pIC50

a = CCCS(=O)(=O)Nc1ccc(F)c(C(=O)c2c[nH]c3ncc(-c4ccc(Cl)cc4)cc23)c1F + CC(Nc1ncnc2nc[nH]c12)c1cc2cccc(Cl)c2c(=O)n1-c1ccccc1
b = CC(C)NCC(C(=O)N1CCN(c2ncnc3c2C(C)CC3O)CC1)c1ccc(Cl)cc1 (stereo not drawn) + CC(Nc1ccc2c(c1)OCCn1cc(N3C(=O)OCC3C(F)F)nc1-2)C(N)=O
c = Cn1nccc1Nc1nccc(-c2ccn(C(CO)c3ccc(Cl)c(F)c3)c(=O)c2)n1 (stereo not drawn) + COc1c(OCCCN2CCOCC2)ccc2c3n(c(=NC(=O)c4cnc(N)nc4)nc12)CCN3
In this exercise, place the 3 compounds in ascending sequence of their recorded pIC50. List each label, following the requested order.
a, c, b
